# method: NCI Yeast Anticancer Drug Screen. Data for the mlh1 rad18 strain (AID 175)
# applied-conditions: S. cerevisiae mlh1 rad18 strain growth inhibition; at 50.0 µM; hits give high values
This is part of a sample that, as a whole, favours compounds with a hit. Of some 79,000 tested, about 15% had one in any assay.
readout-kind: growth inhibition (%)
Use % as the unit, but write only the number.

Some solved entries appear below for comparison.
compound	readout-kind	unit-abbreviation	reported
O=c1[nH]c(=S)[nH]c(-c2ccccc2)c1Cc1c(O)ccc2ccccc12	growth inhibition	%	79.7
Nc1cc2c(c[n+](CCCCCCCCCC[n+]3cc4c5ccccc5c(N)cc4c4ccccc43)c3ccccc23)c2ccccc12	growth inhibition	%	83.6
Cc1ccccc1[P+](C)(c1ccccc1C)c1ccccc1C	growth inhibition	%	71.8
OC(c1cc2ccccc2o1)c1cc2ccccc2s1 (centres undefined)	growth inhibition	%	43
CC(C)CCCC(C)[C@H]1CCC(C2C[C@@H](O)[C@@H]3CC(O)[C@@H](O)C[C@]3(CO)C2=O)[C@]1(C)CCO (some centres undefined)	growth inhibition	%	92
O=C(CC1(O)C(=O)Nc2c(Cl)ccc(Cl)c21)c1ccc(Cl)cc1Cl (centres undefined)	growth inhibition	%	92.2
Cc1ccc(N=C=C(c2ccccc2)c2ccccc2)cc1	growth inhibition	%	71.2
COc1cccc2c1C(=O)c1c(O)c(COC3CC(N)C(O)C(C)O3)cc(O)c1C2=O (centres undefined)	growth inhibition	%	98.3
CC(C)OC(=O)c1ccc(NCc2cc(O)ccc2O)cc1Cl	growth inhibition	%	88
COc1ccccc1/C=C1\S/C(=N/Nc2nc(C)c(C(C)=O)s2)NC1=O	growth inhibition	%	-7.7

Identify the reported growth inhibition for the following entry. C[CH2][Sn]([CH2]C)([O]C(=O)c1c(F)cccc1F)[O][Sn]([CH2]C)([CH2]C)[O]C(=O)c1c(F)cccc1F
78.2

Identify the reported growth inhibition for the following entry. COC(=O)C12CCC(=O)C(C)=C1CCC(OC)(OC)C2 (centres undefined)
82.3

Identify the reported growth inhibition for the following entry. CC(=O)/C=C1\C(=O)Nc2ccccc21
78.7

Identify the reported growth inhibition for the following entry. O=C(Cn1cnc2ccc([N+](=O)[O-])cc21)N1CCN(c2ccccc2)CC1
0.6

###

# method: NCI Yeast Anticancer Drug Screen. Data for the mlh1 rad18 strain (AID 175)
# applied-conditions: S. cerevisiae mlh1 rad18 strain growth inhibition; at 50.0 µM; hits give high values
This is part of a sample that, as a whole, favours compounds with a hit. Of some 79,000 tested, about 15% had one in any assay. Activity calls are given as the source filed them. Cut-off read from the data, not from the text of the source: active = growth inhibition above about 70%; inactive = the rest.
Measured growth inhibition values are reported for all entries that follow.

molecule	growth inhibition
COC1(OC)OC2=C(OC1(OC)OC)c1ccccc1C2=O	-55.2% (inactive)

Identify the reported growth inhibition for the following entry. O=C(Nc1ccc(F)c([N+](=O)[O-])c1)NC(Cc1ccccc1)c1ccccc1 (stereo unspecified)
93.1% (active)

Identify the reported growth inhibition for the following entry. CCCCCCCCCCCCCCCCCC(=O)OCC(COC(=O)CCCN)OC(=O)CCCN (stereo unspecified)
97.5% (active)

Identify the reported growth inhibition for the following entry. NCCSC1(O)C(=O)c2ccccc2-c2ccccc21 (stereo unspecified)
98.8% (active)

Identify the reported growth inhibition for the following entry. O=C1C=CC(=O)c2c(O)c(N3CCC[C@H]3CO)c(Cl)c(O)c21
41.6% (inactive)

Identify the reported growth inhibition for the following entry. O=S1(=O)CC(Cl)(Cl)C1
11.6% (inactive)

Identify the reported growth inhibition for the following entry. O=C(Nc1c(Cl)cccc1Cl)OCCOc1ccc(Cl)cc1Cl
90% (active)

Identify the reported growth inhibition for the following entry. CCc1nc(N)nc(N)c1-c1ccc(NCCN)c([N+](=O)[O-])c1
98.9% (active)

###

# method: NCI Yeast Anticancer Drug Screen. Data for the sgs1 mgt1 strain (AID 161);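 further: 0% = growth of cultures given vehicle only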
# applied-conditions: S. cerevisiae sgs1 mgt1 strain, at 50.0 µM (retest, dose inferred, filed as 5.0), hits give high values
This is part of a sample that, as a whole, favours compounds with a hit. Of some 79,000 tested, about 15% had one in any assay. Activity calls are given as the source filed them. Rule as the data show it: active = growth inhibition above about 70%; inactive = the rest.
Measured growth inhibition values are reported for all entries that follow.

Cc1ccc2c(c1)[n+]([O-])c(N)c(C#N)[n+]2[O-] 97% (active)
CCCCCCC(=O)OCc1ccc(-c2ccccc2)cc1 100% (active)
CCCCCCCCCCCCCCCCCC(=O)OCC(O)COC(=O)CCCCCCCCCCCCCCCCC -21% (inactive)
COc1ccccc1OC(=O)Oc1ccccc1OC 12% (inactive)
CN1CCN(CCOC(=O)N2c3ccccc3Sc3ccccc32)CC1 2% (inactive)

In the following, a different compound is considered.
Identify the reported growth inhibition for the following entry. CC(/C=C/c1cccs1)=N\C(=S)NC(N)=S
12% (inactive)

###

# method: NCI Yeast Anticancer Drug Screen. Data for the bub3 strain (AID 167)
# applied-conditions: S. cerevisiae bub3 mutant strain, at 50.0 µM (retest, dose inferred, filed as 5.0), hits give high values
Compounds without any hit were thinned out: in the full panel of roughly 79,000, 15% have a hit.
Measured growth inhibition values are reported for all entries that follow.
Use % as the unit, but write only the number.

Identify the reported growth inhibition for the following entry. O=C1C(c2ccccc2)=[N+]([O-])c2ccccc21
80

Identify the reported growth inhibition for the following entry. Cn1c2ccccc2c2c(C#N)c(C#N)c([N+](=O)[O-])cc21
98

Identify the reported growth inhibition for the following entry. Cc1cc(SC#N)cc(C)c1O
63

Identify the reported growth inhibition for the following entry. Cc1ccnc2c1ccc1c(C)ccnc12
98

Identify the reported growth inhibition for the following entry. Cc1ccc(NC(=O)c2cc3ccccc3c(N=Nc3cc(S(=O)(=O)O)ccc3O)c2O)c(C)c1
92

Identify the reported growth inhibition for the following entry. Cc1ccc2c(c1)CC1(C2)Cc2ccc(C)cc2C1=O (stereo not given)
88

Identify the reported growth inhibition for the following entry. CN(Cc1ccccc1)c1nc(=[N+](C)C)ss1
11

Identify the reported growth inhibition for the following entry. COc1ccc(C(=O)C(CCC(=O)/C=C/c2ccccc2)S(C)(=O)=O)cc1 (stereo not given)
6

Identify the reported growth inhibition for the following entry. CCCCCCC(=O)CC(SCCN)c1ccccc1Cl (stereo not given)
99

Identify the reported growth inhibition for the following entry. Cc1ccc(-c2c(C#N)c(-c3ccccc3)n(NS(=O)(=O)c3ccc(C)cc3)c(=O)c2C#N)cc1
70

Identify the reported growth inhibition for the following entry. O=C(O)c1ccc2c3c(ncnc13)-c1ccccc1C2=O
90

Identify the reported growth inhibition for the following entry. OC(CCl)COc1c(Cl)c(Cl)c(Cl)c(Cl)c1Cl (stereo not given)
16

Identify the reported growth inhibition for the following entry. c1ccc2c(c1)[nH]c1cc3ccncc3cc12
51

Identify the reported growth inhibition for the following entry. Cc1cc(N(CCC#N)CCC#N)ccc1/C(N=Nc1cccc([N+](=O)[O-])c1)=N/NC(=O)c1cc(Cl)ccc1O
58

Identify the reported growth inhibition for the following entry. CCCCCC(=O)/C=C/c1ccc(C)cc1
-57

###

Measured growth inhibition values are reported for all entries that follow.
# method: NCI Yeast Anticancer Drug Screen. Data for the sgs1 mgt1 strain (AID 161);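 further: 0% = growth of cultures given vehicle only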
# applied-conditions: S. cerevisiae sgs1 mgt1 strain, at 50.0 µM, hits give high values
About 79,000 compounds went through this panel and 15% of them were active in at least one assay; those are over-represented in the sample as a whole.
Use % as the unit, but write only the number.

Some solved entries appear below for comparison.
compound	unit-abbreviation	growth inhibition
CC1(C(Cl)(Cl)Cl)C=CC(O)(C#CC2(O)C=CC(C)(C(Cl)(Cl)Cl)C=C2)C=C1 (stereo unspecified)	%	98.3
NC(=S)N/N=C1/C(=O)c2cccc3cccc1c23	%	66.7
O=C(C[n+]1ccc2ccccc2c1)c1ccc(-c2ccccc2)cc1	%	98
N#Cc1c(-c2ccc(Cl)cc2)c(-c2ccc(Cl)cc2)nn(CCOC(=O)CCC(=O)O)c1=O	%	78.1
Cc1ccc(S(=O)(=O)N(c2ccccc2-c2ccccc2)C(C)C(=O)O)cc1 (stereo unspecified)	%	96

In the following, a different compound is considered.
Identify the reported growth inhibition for the following entry. CCN(CC)CCOc1ccc(/C=C/c2ccccc2)cc1
93.7

###

# method: NCI Yeast Anticancer Drug Screen. Data for the mlh1 rad18 strain (AID 175)
# applied-conditions: S. cerevisiae mlh1 rad18 strain growth inhibition; at 50.0 µM (retest, dose inferred, filed as 5.0); hits give high values
About 79,000 compounds went through this panel and 15% of them were active in at least one assay; those are over-represented in the sample as a whole.
Measured growth inhibition values are reported for all entries that follow.
Use % as the unit, but write only the number.

molecule	unit-abbreviation	growth inhibition
CSc1ncnc2ncn(C3OC(CO)C(O)C3O)c12 (stereo not given)	%	-21
O=C(Nc1ccccc1)c1ccc(Cl)cc1Cl	%	-8
COC(=O)c1n[nH]c(C)c1N=NN1CCC(C(N)=O)CC1	%	99
C/C=C1\SC(=S)NC1=O	%	99
c1coc(C2=Nc3cccc4cccc(c34)N2)c1	%	96
C/C(=N\NC(=S)N(C)CCN(C)C(=S)N/N=C(\C)c1ccccn1)c1ccccn1	%	99
CC(C)N(C(=O)c1ccc(Cl)c(Cl)c1)C(C)C	%	0
O=[N+]([O-])OC1CCCC(O[N+](=O)[O-])c2c1n([O-])c1ccccc1[n+]2=O (stereo not given)	%	94

Identify the reported growth inhibition for the following entry. c1cc[c]([Sn]([S]c2cccc3cccnc23)([S]c2cccc3cccnc23)[c]2ccccc2)cc1
99

Identify the reported growth inhibition for the following entry. C=C1C(=O)O[C@H]2[C@H](OC(C)=O)[C@@H](C)CCC/C(C)=C/CC[C@@]3(C)O[C@@H]3C[C@@H]12
99

Identify the reported growth inhibition for the following entry. CCOC(=O)c1cnc(SCc2ccc(Cl)cc2Cl)nc1Cl
62

Identify the reported growth inhibition for the following entry. COc1ccc([C@H]2c3cc4c(cc3OC(O)(CO)[C@H]2C(=O)O)OCO4)c(OC)c1 (stereo not given in full) (tested in a mixture with another compound)
86

Identify the reported growth inhibition for the following entry. Cc1c(Cl)cccc1N=NC(=O)NNc1cccc(Cl)c1C
98

Identify the reported growth inhibition for the following entry. O=C(O)Cc1nc2ccccc2[nH]1
99

Identify the reported growth inhibition for the following entry. FC(F)(F)c1nc(S)cc(=S)[nH]1
10

Identify the reported growth inhibition for the following entry. CC(=O)c1cc(-c2ccc(C)cc2)nc2c(C)cc(C)cc12
41

Identify the reported growth inhibition for the following entry. CSc1nc(NN)cc(-c2ccccc2)n1
54

Identify the reported growth inhibition for the following entry. O=[N+]([O-])c1ccc(Cc2nc3ccccc3s2)cc1
93

Identify the reported growth inhibition for the following entry. C=C(c1ccccc1)[N+](=O)[O-]
100

Identify the reported growth inhibition for the following entry. CCOC(=O)CC(NC(=O)c1[nH]cnc1/N=N/N(C)C)C(=O)OCC (stereo not given)
97

Identify the reported growth inhibition for the following entry. Cc1ccnc(NC(c2ccccc2)c2ccc3cccnc3c2O)c1 (stereo not given)
95

Identify the reported growth inhibition for the following entry. N#C/C(=C\c1c(Cl)cccc1Cl)c1ccccc1
55

Identify the reported growth inhibition for the following entry. O=C1C2=Cc3ccccc3CCN2c2ccccc21
2

Identify the reported growth inhibition for the following entry. Cc1occc1C(=S)Nc1ccc(Cl)c(C(=O)OCC(C)C)c1
73
